MEASURED ON: T1, human CLEC12A expressed on cells (human, UniProt Q5QGZ9 1-265)
T1 construct: Transduced isogenic cells or endogenous expression on AML cells; also called RMA-hCLEC12A; Ba/F3-hCLEC12A
T1 sequence: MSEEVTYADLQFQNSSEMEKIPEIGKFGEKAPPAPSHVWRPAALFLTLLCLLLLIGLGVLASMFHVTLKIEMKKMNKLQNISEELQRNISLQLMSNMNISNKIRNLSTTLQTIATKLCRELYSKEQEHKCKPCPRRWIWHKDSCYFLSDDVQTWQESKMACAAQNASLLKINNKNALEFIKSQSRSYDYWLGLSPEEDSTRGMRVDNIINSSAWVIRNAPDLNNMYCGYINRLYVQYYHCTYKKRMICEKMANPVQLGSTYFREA
METHOD SUMMARY: flow cytometry, PL21 cells
MEASURE: Max MFI (MFI)

BINDER	READOUT NUMBER
9E4.B7 (antibody, V domains shown, Murine mAb; also called 9E04) VH: EVQLQESGAELMKPGASVKISCRTTGYTFSTYWIEWVKQRPGRGPEWIGELFPGNSDTTLNEKFTGKATFTADSSSNTAYMQLSSLTSEDSAVYYCARSGYYGSSLDYWGQGTTLTVSS VL: GIVMTQSPASLSASVGETVTITCRAGENIHSYLAWYQQKQGKSPQLLVYNAKTLAEGVPSRFSGSGSGTQFSLKINSLQPEDFGSYYCQHHYGTPRTFGGGTKLEIK	186
9F11.B7 (antibody, V domains shown, Murine mAb) VH: EVQLQESGGGLVQPGGSRKLSCAASGFTFNSFGMHWVRQAPEKGLEWVAFISSGSTSIYYANTVKGRFTISRDNPKNTLFLQMTSLRSEDTAMYYCARDGYPTGGAMDYWGQGTSVTVSS VL: DIKMTQSPSSMYASLGERVTITCKASQDIYNYLSWFQLKPGKSPRPLIYRANILVSGVPSKFSGSGSGQDYSLTINSLEYEDLGIYYCLQFDAFPFTFGSGTKLEIK	217
16B8.C8 (antibody, V domains shown, Murine mAb; also called 16B08; m16B8.C8) VH: EVQLQESGPGLVQPSQSLSITCTVSGFSLTNYGLHWVRQSPGKGLEWLGVIWSGGKTDYNTPFKSRLSISKDISKNQVFFKMNSLQPNDTAIYFCAKYDYDDSLDYWGQGTSVTVSS VL: DIQMNQSPSSLSASLGDTIAITCHASQNINFWLSWYQQKPGNIPKLLIYEASNLHTGVPSRFSGSGSGTRFTLTISSLQPEDIATYYCQQSHSYPLTFGQGTKLEIK	300
Genentech-h6E7 (antibody, V domains shown) VH: EVQLVQSGAEVKKPGASVKVSCKASGYSFTDYYMHWVRQAPGQGLEWIGRINPYNGAAFYSQNFKDRVTLTVDTSTSTAYLELSSLRSEDTAVYYCAIERGADLEGYAMDYWGQGTLVTVSS VL: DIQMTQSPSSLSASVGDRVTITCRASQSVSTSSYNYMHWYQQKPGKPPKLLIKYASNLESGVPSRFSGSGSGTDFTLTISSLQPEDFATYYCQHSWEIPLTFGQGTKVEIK	265
